Just for reference, patent US5100907A is where these values come from.

# Tested on: Staphylococcus aureus
# Assay method text: Antimicrobial study against Staphylococcus aureus (gram-positive bacteria)
# Assay type: cell-based
# Condition details: Day 7; methylolated C8/10 10,800 ppm, methylolated lauric 11,400 ppm, DMDMH 3,000 ppm, others 14,700 ppm
Observation type: Colony Count

Illustrative cases are given below, each with its answer.
| Compound | Colony Count |
| --- | --- |
| CCCCCCCCCCCCCCCCCC(=O)OCCOC(=O)CCCCCCCCCCCCCCCCC [EGDS, ethylene glycol distearate, reference compound] | 2,000 × 1,000 |
| CCCCCCCCCCCCOS(=O)(=O)[O-].[Na+] [SLS, Sodium lauryl sulfate, reference compound] | < 0.01 × 1,000 |
| CCCCCCCCCCCC(=O)OCCN1C(=O)NC(=O)C1(C)C | 30 × 1,000 |
| CC1(C)C(=O)N(CO)C(=O)N1CO [DMDMH (iv), reference compound] | < 0.01 × 1,000 |
| CCCCCCCC/C=C\CCCCCCCC(=O)OCCN1C(=O)N(CO)C(=O)C1(C)C | < 0.01 × 1,000 |

Let's switch to this compound now.
Qu. # returns recorded Colony Count (system: Staphylococcus aureus) for `CCCCCCCCCCCC(=O)OCCN1C(=O)N(CO)C(=O)C1(C)C`
Ans. < 0.01 × 1,000

---

# Tested on: Aspergillus niger
# Assay method text: Antimicrobial study against Aspergillus niger (mold)
# Assay type: cell-based
# Condition details: Day 2; methylolated C8/10 10,800 ppm, methylolated lauric 11,400 ppm, DMDMH 3,000 ppm, others 14,700 ppm
Observation type: Colony Count

Illustrative cases are given below, each with its answer.
| Compound | Colony Count |
| --- | --- |
| CCCCCCCCCCCCOS(=O)(=O)[O-].[Na+] [SLS, Sodium lauryl sulfate, reference compound] | 300 × 1,000 |
| CCCCCCCC/C=C\CCCCCCCC(=O)OCCN1C(=O)N(CO)C(=O)C1(C)C | < 0.01 × 1,000 |
| CCCCCCCCCCCCCCCCCC(=O)OCCOC(=O)CCCCCCCCCCCCCCCCC [EGDS, ethylene glycol distearate, reference compound] | 300 × 1,000 |
| CCCCCCCCCCCC(=O)OCCN1C(=O)N(CO)C(=O)C1(C)C | < 0.01 × 1,000 |
| CC1(C)C(=O)N(CO)C(=O)N1CO [DMDMH (iv), reference compound] | < 0.01 × 1,000 |

Let's switch to this compound now.
Qu. So what's the measured Colony Count for this one? `CCCCCCCCCCCC(=O)OCCN1C(=O)NC(=O)C1(C)C`
Ans. 200 × 1,000

---

# Assay method text: Surface tension tests (cmc, Gibbs' Free Energy of Micellation)
# Format: physicochemical
# Condition details: ester/water solution
# Protocol: Surface tension tests were conducted as to the relationship between the fatty acid aliphatic chain length, i.e. number of carbon atoms, in the esters (I), and their performance as surfactants. […] The lower the cmc, the more readily the material will form micelles. The Gibbs' Free Energy of Micellation (ΔG°cmc) and the ΔG°cmc per --CH2 -- can be determined if the cmc is known. The ΔG°cmc is a calculated value obtained by Equation 1. […]
I'd be grateful if you could share measured cmc (critical micelle concentration) for these entries.

Illustrative cases are given below, each with its answer.
| Compound | cmc (critical micelle concentration) |
| --- | --- |
| CCCCCCCC/C=C\CCCCCCCC(=O)OCCN1C(=O)N(CO)C(=O)C1(C)C | 4.0 × 10^-4 mol dm^-3 |
| CC(=O)OCCN1C(=O)N(CO)C(=O)C1(C)C | 7.24 × 10^-3 mol dm^-3 |
| CCCCCCCCCCCCOS(=O)(=O)[O-].[Na+] [SLS, Sodium lauryl sulfate, reference compound] | 4.4 × 10^-3 mol dm^-3 |

Qu. So what's the measured cmc (critical micelle concentration) for this one? `CCCCCCCCCCCCCCCCCC(=O)OCCN1C(=O)N(CO)C(=O)C1(C)C`
Ans. 7.0 × 10^-3 mol dm^-3

---

# System: Pseudomonas aeruginosa
# Assay method text: Antimicrobial study against Pseudomonas aeruginosa (gram-negative bacteria)
# Format: cell-based
# Condition details: Day 1; methylolated C8/10 10,800 ppm, methylolated lauric 11,400 ppm, DMDMH 3,000 ppm, others 14,700 ppm
Observation type: Colony Count

Illustrative cases are given below, each with its answer.
| Compound | Colony Count |
| --- | --- |
| CCCCCCCCCCCC(=O)OCCN1C(=O)NC(=O)C1(C)C | TNC |
| CCCCCCCC/C=C\CCCCCCCC(=O)OCCN1C(=O)N(CO)C(=O)C1(C)C | < 0.01 × 1,000 |
| CCCCCCCCCCCCOS(=O)(=O)[O-].[Na+] [SLS, Sodium lauryl sulfate, reference compound] | 500 × 1,000 |
| CCCCCCCCCCCCCCCCCC(=O)OCCOC(=O)CCCCCCCCCCCCCCCCC [EGDS, ethylene glycol distearate, reference compound] | TNC |

Each of the following entries comes with a recorded value; kindly state Colony Count for each.
1. CCCCCCCCCCCC(=O)OCCN1C(=O)N(CO)C(=O)C1(C)C
2. CC1(C)C(=O)N(CO)C(=O)N1CO [DMDMH (iv), reference compound]

Ans.
< 0.01 × 1,000
TNC

---

I'd be grateful if you could share measured Colony Count for these entries.
# Test system: Aspergillus niger
# Assay method text: Antimicrobial study against Aspergillus niger (mold)
# Assay type: cell-based
# Condition details: Day 7; methylolated C8/10 10,800 ppm, methylolated lauric 11,400 ppm, DMDMH 3,000 ppm, others 14,700 ppm

Illustrative cases are given below, each with its answer.
| Compound | Observation type | Observed |
| --- | --- | --- |
| CCCCCCCCCCCCOS(=O)(=O)[O-].[Na+] [SLS, Sodium lauryl sulfate, reference compound] | Colony Count | 200 × 1,000 |
| CC1(C)C(=O)N(CO)C(=O)N1CO [DMDMH (iv), reference compound] | Colony Count | < 0.01 × 1,000 |
| CCCCCCCCCCCC(=O)OCCN1C(=O)NC(=O)C1(C)C | Colony Count | 150 × 1,000 |
| CCCCCCCCCCCC(=O)OCCN1C(=O)N(CO)C(=O)C1(C)C | Colony Count | < 0.01 × 1,000 |
| CCCCCCCCCCCCCCCCCC(=O)OCCOC(=O)CCCCCCCCCCCCCCCCC [EGDS, ethylene glycol distearate, reference compound] | Colony Count | 700 × 1,000 |

Qu. So what's the measured Colony Count for this one? `CCCCCCCC/C=C\CCCCCCCC(=O)OCCN1C(=O)N(CO)C(=O)C1(C)C`
Ans. < 0.01 × 1,000

---

I'd be grateful if you could share measured ΔG°cmc (Gibbs' Free Energy of Micellation) for these entries.
# Assay method text: Surface tension tests (cmc, Gibbs' Free Energy of Micellation)
# Format: physicochemical
# Condition details: calculated from cmc by Eq. 1, T=298° K.
One number for each entry, in kJ/mol.

Illustrative cases are given below, each with its answer.
| Molecule | Observed |
| --- | --- |
| CCCCCCCCCCCCCCCCCC(=O)OCCN1C(=O)N(CO)C(=O)C1(C)C [Stearic Methylolated Ester] | -22.08 |
| CCCCCCCCCCCCOS(=O)(=O)[O-].[Na+] [SLS, Sodium lauryl sulfate, reference compound] | -23.23 |
| CCCCCCCC/C=C\CCCCCCCC(=O)OCCN1C(=O)N(CO)C(=O)C1(C)C [Methylolated Oleic Ester] | -29.13 |

Qu. So what's the measured ΔG°cmc (Gibbs' Free Energy of Micellation) for this one? CC(=O)OCCN1C(=O)N(CO)C(=O)C1(C)C [Acetic Methylolated Ester]
Ans. -16.30

---

I'd be grateful if you could share measured Colony Count for these entries.
# Test system: Aspergillus niger
# Assay method text: Antimicrobial study against Aspergillus niger (mold)
# Format: cell-based
# Condition details: Day 0; methylolated C8/10 10,800 ppm, methylolated lauric 11,400 ppm, DMDMH 3,000 ppm, others 14,700 ppm

| Compound | Colony Count |
| --- | --- |
| CCCCCCCCCCCCOS(=O)(=O)[O-].[Na+] [SLS, Sodium lauryl sulfate, reference compound] | 600 × 1,000 |

Each of the following entries comes with a recorded value; kindly state Colony Count for each.
1. CCCCCCCCCCCCCCCCCC(=O)OCCOC(=O)CCCCCCCCCCCCCCCCC [EGDS, ethylene glycol distearate, reference compound]
2. CCCCCCCC/C=C\CCCCCCCC(=O)OCCN1C(=O)N(CO)C(=O)C1(C)C [Methylolated Oleic Ester]
3. CCCCCCCCCCCC(=O)OCCN1C(=O)N(CO)C(=O)C1(C)C [Methylolated Lauric Ester]
4. CC1(C)C(=O)N(CO)C(=O)N1CO [DMDMH (iv), reference compound]
5. CCCCCCCCCCCC(=O)OCCN1C(=O)NC(=O)C1(C)C [Non-Methylolated Lauric Ester]

Ans.
2,000 × 1,000
2,000 × 1,000
400 × 1,000
400 × 1,000
300 × 1,000
